target: PSMA Fab (anti-PSMA Fab; 006 PSMA Fab); experiment: phage binding ELISA on captured PSMA Fab; wells first incubated with PSMA antigen as competitor; anti-M13 HRP detection
Where no end group is shown, it is not given here.
OBSERVABLE: Phage binding ELISA signal, Anti-PSMA Fab with PSMA antigen
In your answer, state the number alone without any accompanying words.

Example binders with recorded Phage binding ELISA signal, Anti-PSMA Fab with PSMA antigen:
IVKWCTPAWMCDQQ [Phage-2736 (Peptide-180 library clone)]    0.0809
WEKLCRPAWMCAAY (cysteine pairing not given here; also: fused to pIII, displayed on bacteriophage) [Phage-2738 (Peptide-180 library clone)]    0.0754

Memo: VNPSCTPSWMCLGL [Phage-2728 (Peptide-180 library clone)] , reported Phage binding ELISA signal, Anti-PSMA Fab with PSMA antigen: 0.0793

Data origin: patent US20260242478A1
